System: 941728-121-R-J1-PDC complex spheroid viability
Test: Anticancer human tumor 941728-121-R-J1-PDC patient-derived lung adenocarcinoma cell line growth inhibition [RAS]
Conditions: second compound 0.0949 µM; first compound 0.316 µM; stronger effect = lower value
Hi there, I'd appreciate the recorded viability, T/C for every entry that follows.
One number for each entry, in %.

Consider the reported viability, T/C for these molecules:
{"Molecule": "CC(=O)OC12COC1CC(O)C1(C)C(=O)C(O)C3=C(C)C(OC(=O)C(O)C(NC(=O)OC(C)(C)C)c4ccccc4)CC(O)(C(OC(=O)c4ccccc4)C21)C3(C)C (stereo not drawn) + CCn1c(-c2cccnc2C(C)OC)c2c3cc(ccc31)N1CCOC(CC(NC(=O)C(C(C)C)N(C)C(=O)C3(F)CCN(C(=O)C#CC(C)(C)N(C)C)CC3)C(=O)N3CCCC(N3)C(=O)OCC(C)(C)C2)C1", "Unit Descriptor": "%", "Reported": 16.1}
{"Molecule": "CCN1CCN(Cc2ccc(Nc3ncc(F)c(-c4cc(F)c5nc(C)n(C(C)C)c5c4)n3)nc2)CC1 + CCn1c(-c2cc(N3CCN(C)CC3)cnc2C(C)OC)c2c3cc(ccc31)-c1csc(n1)CC(NC(=O)C1CC1C)C(=O)N1CCCC(N1)C(=O)OCC(C)(C)C2", "Unit Descriptor": "%", "Reported": 7.16}

Turning now to a further molecule:
// lookup viability, T/C for CC(Nc1ccc2c(c1)OCCn1cc(N3C(=O)OCC3C(F)F)nc1-2)C(N)=O (stereo not drawn) + CCn1c(-c2cccnc2C(C)OC)c2c3cc(ccc31)N1CCOC(CC(NC(=O)C(C(C)C)N(C)C(=O)C3(F)CCN(C(=O)C#CC(C)(C)N(C)C)CC3)C(=O)N3CCCC(N3)C(=O)OCC(C)(C)C2)C1 15.8

====

Record form. Attribute: pIC50. Fill in for each entry.
System: 941728-121-R-J1-PDC complex spheroid viability
Assay: Anticancer human tumor 941728-121-R-J1-PDC cell line growth inhibition [RAS];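 note: spheroids exposed to compounds for 7 days before readout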
Settings: curve of first compound; second compound 1 µM
pIC50: −log10 of the molar value.

In the examples that follow, each entry is paired with its recorded pIC50.
{"Compound": "C=CC(=O)Nc1cc(Nc2nccc(-c3cn(C)c4ccccc34)n2)c(OC)cc1N(C)CCN(C)C + C#Cc1c(F)ccc2cc(O)cc(-c3ncc4c(N5CC6CCC(C5)N6)nc(OCC56CCCN5CC(F)C6)nc4c3F)c12", "pIC50": "> 8.50"}
{"Compound": "CCC(CC)c1cc(NC2CCC(N)C2)n2nccc2n1 (stereo not given) + C=CC(=O)N1CCN(c2nc(OCC3CCCN3C)nc3c(F)c(-c4nc(N)cc(C)c4C(F)(F)F)c(Cl)cc23)C(C)C1", "pIC50": "> 7.50"}

Give pIC50 for each listed item.
1. CC1(O)CCCC1n1c(=O)c(C(F)F)cc2cnc(NC3CCN(S(C)(=O)=O)CC3)nc21 (stereo not given) + C#Cc1c(F)ccc2cc(O)cc(-c3ncc4c(N5CC6CCC(C5)N6)nc(OCC56CCCN5CC(F)C6)nc4c3F)c12
2. CCc1c2c(nc3ccc(O)cc13)-c1cc3c(c(=O)n1C2)COC(=O)[C@]3(O)CC + C#Cc1c(F)ccc2cc(O)cc(-c3ncc4c(N5CC6CCC(C5)N6)nc(OCC56CCCN5CC(F)C6)nc4c3F)c12
3. CC(C)n1nc(-c2ccc3oc(N)nc3c2)c2c(N)ncnc21 + C#Cc1c(F)ccc2cc(O)cc(-c3ncc4c(N5CC6CCC(C5)N6)nc(OCC56CCCN5CC(F)C6)nc4c3F)c12

> 7.50
> 9.02
> 9.50

====

System: 941728-121-R-J1-PDC complex spheroid viability
Assay: Anticancer human tumor 941728-121-R-J1-PDC cell line growth inhibition [RAS];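 note: spheroids exposed to compounds for 7 days before readout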;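 for viability, T/C: 100% = DMSO vehicle control viability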
Details: second compound 0.00316 µM; first compound 0.316 µM; stronger effect = lower value
Value Kind: viability, T/C (%)
Numbers only, in %.

Answered examples (3):
{"Compound": "CCC(CC)c1cc(NC2CCC(N)C2)n2nccc2n1 (stereo not given) + C=CC(=O)N1CCN(c2nc(OCC3CCCN3C)nc3c(F)c(-c4nc(N)cc(C)c4C(F)(F)F)c(Cl)cc23)C(C)C1", "Reported": 20.3}
{"Compound": "CC(=O)OC12COC1CC(O)C1(C)C(=O)C(O)C3=C(C)C(OC(=O)C(O)C(NC(=O)OC(C)(C)C)c4ccccc4)CC(O)(C(OC(=O)c4ccccc4)C21)C3(C)C (stereo not given) + C=CC(=O)N1CCN(c2nc(OCC3CCCN3C)nc3c(F)c(-c4nc(N)cc(C)c4C(F)(F)F)c(Cl)cc23)C(C)C1", "Reported": 13.2}
{"Compound": "Cc1nc(N2CCC3(CC2)COC(C)C3N)c(CO)nc1Sc1ccnc(N)c1Cl (stereo not given) + C=CC(=O)N1CCN(c2nc(OCC3CCCN3C)nc3c(F)c(-c4nc(N)cc(C)c4C(F)(F)F)c(Cl)cc23)C(C)C1", "Reported": 16.5}

Hey, quick one: what's viability, T/C for each of these?
1. CC(Nc1ccc2c(c1)OCCn1cc(N3C(=O)OCC3C(F)F)nc1-2)C(N)=O (stereo not given) + C=CC(=O)N1CCN(c2nc(OCC3CCCN3C)nc3c(F)c(-c4nc(N)cc(C)c4C(F)(F)F)c(Cl)cc23)C(C)C1
2. Nc1ccn(C2OC(CO)C(O)C2(F)F)c(=O)n1 (stereo not given) + C=CC(=O)N1CCN(c2nc(OCC3CCCN3C)nc3c(F)c(-c4nc(N)cc(C)c4C(F)(F)F)c(Cl)cc23)C(C)C1

1. 15.4
2. 15.9

====

System: 941728-121-R-J1-PDC complex spheroid viability
Experiment: Anticancer human tumor 941728-121-R-J1-PDC cell line growth inhibition [RAS];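 note: spheroids exposed to compounds for 7 days before readout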;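 for viability, T/C: 100% = DMSO vehicle control viability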
Conditions: second compound 0.00316 µM; first compound 10 µM; stronger effect = lower value
Text: RAS pathway inhibitors in Combinations in Complex Spheroids A high-throughput screen of multi-cell type tumor spheroids was designed to identify active combinations of RAS pathway inhibitors and targeted small molecules. Complex spheroids include a stromal component modeled by human endothelial cells (HUVEC) and fibroblasts modeled by human mesenchymal stem cells (MSCs). […] Compounds. […] If the clinical Cmax for an agent had not been determined, the highest concentration tested was 10 microM. […]
So I've got a bunch of compounds here, and I need their viability, T/C values.

For the 4 compounds below, give their viability, T/C values.
1. C[C@@H](NC(=O)c1ncnc(N)c1Cl)c1ncc(C(=O)Nc2cc(C(F)(F)F)c(Cl)cn2)s1 + C=CC(=O)N1CCN(c2nc(OCC3CCCN3C)nc3c(F)c(-c4nc(N)cc(C)c4C(F)(F)F)c(Cl)cc23)C(C)C1
2. NC1c2ccccc2OC12CCN(c1cnc3c(N4CCCc5ncccc54)n[nH]c3n1)CC2 (stereo not drawn) + C=CC(=O)N1CCN(c2nc(OCC3CCCN3C)nc3c(F)c(-c4nc(N)cc(C)c4C(F)(F)F)c(Cl)cc23)C(C)C1
3. CC(Nc1ccc2c(c1)OCCn1cc(N3C(=O)OCC3C(F)F)nc1-2)C(N)=O (stereo not drawn) + C=CC(=O)N1CCN(c2nc(OCC3CCCN3C)nc3c(F)c(-c4nc(N)cc(C)c4C(F)(F)F)c(Cl)cc23)C(C)C1
4. CC1(O)CCCC1n1c(=O)c(C(F)F)cc2cnc(NC3CCN(S(C)(=O)=O)CC3)nc21 (stereo not drawn) + C=CC(=O)N1CCN(c2nc(OCC3CCCN3C)nc3c(F)c(-c4nc(N)cc(C)c4C(F)(F)F)c(Cl)cc23)C(C)C1

1: 20.7%; 2: 17.1%; 3: 12%; 4: 23.6%

# batch size: 4; output viability, T/C per entry
1. Cc1nc(N2CCC3(CC2)COC(C)C3N)c(CO)nc1Sc1ccnc(N)c1Cl (stereo not drawn) + C=CC(=O)N1CCN(c2nc(OCC3CCCN3C)nc3c(F)c(-c4nc(N)cc(C)c4C(F)(F)F)c(Cl)cc23)C(C)C1
2. CC(C)NCC(C(=O)N1CCN(c2ncnc3c2C(C)CC3O)CC1)c1ccc(Cl)cc1 (stereo not drawn) + C=CC(=O)N1CCN(c2nc(OCC3CCCN3C)nc3c(F)c(-c4nc(N)cc(C)c4C(F)(F)F)c(Cl)cc23)C(C)C1
3. CC(=O)OC12COC1CC(O)C1(C)C(=O)C(O)C3=C(C)C(OC(=O)C(O)C(NC(=O)OC(C)(C)C)c4ccccc4)CC(O)(C(OC(=O)c4ccccc4)C21)C3(C)C (stereo not drawn) + C=CC(=O)N1CCN(c2nc(OCC3CCCN3C)nc3c(F)c(-c4nc(N)cc(C)c4C(F)(F)F)c(Cl)cc23)C(C)C1
4. CCC(CC)c1cc(NC2CCC(N)C2)n2nccc2n1 (stereo not drawn) + C=CC(=O)N1CCN(c2nc(OCC3CCCN3C)nc3c(F)c(-c4nc(N)cc(C)c4C(F)(F)F)c(Cl)cc23)C(C)C1

["17.3%", "8.85%", "20.4%", "29.1%"]

Hello, the source for this data is PubChem BioAssay AID2060896, in case you need it.
